system: Hepatotoxicity; assay: FDA HLAED, serum glutamic pyruvic transaminase (SGPT) increase; conditions: human
Metric: SGPT Increase - Number of Reports

O=c1[nH]c(=O)n([C@H]2C[C@H](O)[C@@H](CO)O2)cc1C(F)(F)F; < 4
CC(C)(C)NC(=O)[C@@H]1CN(Cc2cccnc2)CCN1C[C@@H](O)C[C@@H](Cc1ccccc1)C(=O)N[C@H]1c2ccccc2C[C@H]1O.O; >= 4
CCOC(=O)[C@H](CCc1ccccc1)N[C@@H](C)C(=O)N1[C@H](C(=O)O)C[C@H]2CCCC[C@@H]21; < 4
Cc1nnc2n1-c1ccc(Cl)cc1C(c1ccccc1)=NC2; >= 4
